Target: AtPDF variant I130A (Arabidopsis thaliana, UniProt Q9FUZ2, I210A)
Construct: Expression and purification of mature Arabidopsis thaliana PDF1B and all variants (i.e., AtPDF); made in house
Sequence (Q9FUZ2 57-273 I210A): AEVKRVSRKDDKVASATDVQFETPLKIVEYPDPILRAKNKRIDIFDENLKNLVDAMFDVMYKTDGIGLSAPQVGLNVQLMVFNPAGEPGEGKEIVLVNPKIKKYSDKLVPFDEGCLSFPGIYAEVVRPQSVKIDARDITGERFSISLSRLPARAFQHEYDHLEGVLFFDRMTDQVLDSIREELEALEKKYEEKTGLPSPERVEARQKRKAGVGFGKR
Experiment: biochemical
Conditions: KI*app, 100 nM enzyme, 2 mM substrate, actinonin preincubated 10 min at 37°C
Measurement Label: Ki
Put your answer as a value accompanied by its unit after it.

**Q:** So what does the record say about Ki for CCCCC[C@H](CC(=O)NO)C(=O)N[C@H](C(=O)N1CCC[C@H]1CO)C(C)C ?
**A:** 1.5 nM

###

Target: AtPDF variant I42W (Arabidopsis thaliana, UniProt Q9FUZ2, I122W)
Construct: Expression and purification of mature Arabidopsis thaliana PDF1B and all variants (i.e., AtPDF); made in house
Sequence (Q9FUZ2 83-273 I122W): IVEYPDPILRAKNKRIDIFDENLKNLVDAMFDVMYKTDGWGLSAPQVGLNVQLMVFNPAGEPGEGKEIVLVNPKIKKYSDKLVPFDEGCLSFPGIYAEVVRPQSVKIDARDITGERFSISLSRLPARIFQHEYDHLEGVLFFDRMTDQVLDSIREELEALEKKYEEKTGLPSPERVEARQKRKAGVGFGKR
Test: biochemical
Conditions: KI, 100 nM enzyme, no preincubation, started by adding enzyme
Measurement Label: Ki (nM)
A number alone suffices; assume nM.

**Q:** So what does the record say about Ki for CCCCC[C@H](CC(=O)NO)C(=O)N[C@H](C(=O)N1CCC[C@H]1CO)C(C)C [actinonin] ?
**A:** 97

// provenance: paper PMC3101196
